- protocol text: AUC (0 to 24 hrs) in monkeypox virus infected cynomolgus monkey at 30 mg/kg, po qd for 14 days administered under fed condition measured after 14 days
- Format: ADME, organism-based, Macaca fascicularis
- Parameters: time < 24 hr, dose 30 mg/kg, route oral
- assay setup: plasma

{"smiles data": "O=C(NN1C(=O)[C@@H]2[C@@H]3C=C[C@@H]([C@H]4C[C@@H]34)[C@@H]2C1=O)c1ccc(C(F)(F)F)cc1", "readout units": "ng·h/mL", "AUC at 24 h": 15800}

----------
- protocol text: Cmax in human at 13.3 mg/kg, po qd for 21 days administered under fed condition measured after 21 days
- Type: ADME, organism-based
- Design: dose 13.3 mg/kg, route oral
- assay setup: in vivo

{"smiles data": "O=C(NN1C(=O)[C@@H]2[C@@H]3C=C[C@@H]([C@H]4C[C@@H]34)[C@@H]2C1=O)c1ccc(C(F)(F)F)cc1", "Cmax [ng/mL]": 2440}

// provenance: ChEMBL document CHEMBL1649160
